Assay Name: AUC(0 to infinity) in Sprague-Dawley rat at 1 mg/kg, iv measured up to 8 hrs by LC-MS/MS analysis
Type: ADME, organism-based
Design: dose 1 mg/kg, time < 8 hrs, route iv
Test Conditions: in vivo
Recorded AUC(0-inf), one value per entry.
Please give the number followed by its unit.

INSERT INTO assay_data (structure, reported_endpoint, reported_measurement) VALUES
  ('C[C@@H](C1CC1)N1Cc2cc(-c3ccn4nc(N)c(C(=O)N[C@H]5CC[C@@](C)(O)CC5)c4n3)cc(OC(F)F)c2C1=O', 'AUC(0-inf)', '630 ng·h/mL');

Alright, here's another compound for you.
Returns the measured AUC(0-inf) for the input compound. Input: "C[C@@H](C1CC1)N1Cc2cc(-c3ccn4nc(N)c(C(=O)N[C@H]5CC[C@@](C)(O)CC5)c4n3)cc(OC(F)(F)F)c2C1=O"
797 ng·h/mL
